Target: hGLP-1R (Homo sapiens, UniProt P43220)
Sequence (P43220 24-463): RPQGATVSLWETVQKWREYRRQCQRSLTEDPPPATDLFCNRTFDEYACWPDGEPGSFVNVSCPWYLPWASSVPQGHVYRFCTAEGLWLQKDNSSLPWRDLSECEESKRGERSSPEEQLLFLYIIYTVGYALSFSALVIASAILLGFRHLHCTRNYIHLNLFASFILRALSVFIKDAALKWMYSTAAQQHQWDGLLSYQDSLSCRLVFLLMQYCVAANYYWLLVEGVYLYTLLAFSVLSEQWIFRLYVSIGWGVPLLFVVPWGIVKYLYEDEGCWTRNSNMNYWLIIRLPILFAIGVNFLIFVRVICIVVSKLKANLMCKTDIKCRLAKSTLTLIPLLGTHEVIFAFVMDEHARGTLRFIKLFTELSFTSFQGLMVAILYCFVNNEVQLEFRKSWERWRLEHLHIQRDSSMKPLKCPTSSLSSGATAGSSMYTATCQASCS
Test: cell-based or functional assay
Readout Label: cAMP Rel EC50, nM (in the presence of 1% HSA) (nM)

Binder	Scale Unit	Measured
YXQGTFTSDFSXXLDKKAQXAFIEYLLEGGPSSGAPPPGGSX (synthetic construct; SITE 2: note = 2-Aminoisobutyric Acid; SITE 12: note = L-ornithine; SITE 13: note = alpha-methyl-leucine; SITE 17: note = Lysine is chemically modified through conjugation of the epsilon-amino group of the Lysine side chain with (2-[2-(2-Amino-ethoxy)-ethoxy]-acetyl)-(gamma-Glu)) [Example 66]	nM	329
YXQGTFTSDFSXXLDKKAQXAFIEYLLEGGPSSGAPPPGGSE (synthetic construct; SITE 2: note = 2-Aminoisobutyric Acid; SITE 12: note = L-ornithine; SITE 13: note = alpha-methyl-leucine; SITE 17: note = Lysine is chemically modified through conjugation of the epsilon-amino group of the Lysine side chain with (2-[2-(2-Amino-ethoxy)-ethoxy]-acetyl)-(gamma-Glu)) [Example 65]	nM	462
YXQGTFTSDFSKXLDKKAQXAFIEYLIEGGPSSGAPPPSEG (not fully specified; synthetic construct; SITE 2: note = 2-Aminoisobutyric Acid; SITE 13: note = alpha-methyl-leucine; SITE 17: note = Lysine is chemically modified through conjugation of the epsilon-amino group of the Lysine side chain with (2-[2-(2-Amino-ethoxy)-ethoxy]-acetyl)-(gamma-Glu)-CO-gamma -gamma-(CH2)16-CO2H) [Example 49]	nM	151
YXQGTFTSDFSXXLDKKAQXAFIEYLLEGGPSSGAPPPEGS (synthetic construct; SITE 2: note = 2-Aminoisobutyric Acid; SITE 12: note = L-ornithine; SITE 13: note = alpha-methyl-leucine; SITE 17: note = Lysine is chemically modified through conjugation of the epsilon-amino group of the Lysine side chain with (2-[2-(2-Amino-ethoxy)-ethoxy]-acetyl)-(gamma-Glu)) [Example 130]	nM	865
YXQGTFTSDFSXXLDKKAQXAFIEWLLEGGESSGEPPPSGE (synthetic construct; SITE 2: note = 2-Aminoisobutyric Acid; SITE 12: note = L-ornithine; SITE 13: note = alpha-methyl-leucine; SITE 17: note = Lysine is chemically modified through conjugation of the epsilon-amino group of the Lysine side chain with (2-[2-(2-Amino-ethoxy)-ethoxy]-acetyl)-(gamma-Glu)) [Example 123]	nM	1500
YXQGTFTSDFSXXLDKKAQXAFIEYLLEXGPSSGEPPPGEG (synthetic construct; SITE 2: note = 2-Aminoisobutyric Acid; SITE 12: note = L-ornithine; SITE 13: note = alpha-methyl-leucine; SITE 17: note = Lysine is chemically modified through conjugation of the epsilon-amino group of the Lysine side chain with (2-[2-(2-Amino-ethoxy)-ethoxy]-acetyl)2-(gamma-Glu)) [Example 69]	nM	279
